biological target: Galactokinase (Homo sapiens) (UniProt P51570); assay: Confirmation Assay for Inhibitors of Human Galactokinase (GALK); conditions: purified GALK, Kinase-Glo ATP depletion luminescence; series mostly up to 115 µM
Sequence (P51570 whole entry, looked up): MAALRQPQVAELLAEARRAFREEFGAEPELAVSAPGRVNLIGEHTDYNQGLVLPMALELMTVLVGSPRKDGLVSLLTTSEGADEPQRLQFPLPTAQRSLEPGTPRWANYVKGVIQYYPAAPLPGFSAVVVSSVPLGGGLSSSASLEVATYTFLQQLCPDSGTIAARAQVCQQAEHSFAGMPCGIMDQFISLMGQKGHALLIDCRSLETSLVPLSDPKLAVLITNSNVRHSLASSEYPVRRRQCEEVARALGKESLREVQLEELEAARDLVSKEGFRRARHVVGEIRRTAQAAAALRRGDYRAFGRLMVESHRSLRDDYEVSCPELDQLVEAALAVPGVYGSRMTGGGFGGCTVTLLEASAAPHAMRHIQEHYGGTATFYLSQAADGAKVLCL
This is one part of the list. Records with an inconclusive call do not appear. The source made the active and inactive calls. The call rests on the fitted dose curve; in most records, active means well fitted inhibition curve with a large enough effect; inconclusive means small, poorly fitted or top-dose-only effect; inactive means flat fitted curve, though single readings scatter.
Outcomes you can answer with include only these: class 1 = active, class 0 = inactive

[
  {
    "Smiles entry": "COc1cccc2cc(-c3cc(=O)oc4cc(C)c(O)cc34)oc12",
    "Target": "Galactokinase (Homo sapiens) (UniProt P51570)",
    "Label class": "class 0"
  },
  {
    "Smiles entry": "CCS(=O)(=O)C1=NSC2=NC(=O)/C(=C\\c3ccc(OS(=O)(=O)c4ccccc4)cc3)C(=N)N21",
    "Target": "Galactokinase (Homo sapiens) (UniProt P51570)",
    "Label class": "class 1"
  },
  {
    "Smiles entry": "CCOC(=O)c1c(C)[nH]c2c1-c1ccccc1C(=O)C2=O",
    "Target": "Galactokinase (Homo sapiens) (UniProt P51570)",
    "Label class": "class 1"
  },
  {
    "Smiles entry": "Oc1c(Cl)cc(Cl)c(Cl)c1Cc1c(O)c(Cl)cc(Cl)c1Cl",
    "Target": "Galactokinase (Homo sapiens) (UniProt P51570)",
    "Label class": "class 1"
  }
]

Consider the additional molecule presented here.
Task item: Record lookup: outcome of this test for `N#Cc1c(N2CCCCC2)nc(N)c2c(N)nc(SCC(=O)O)cc12` ?
Reply: class 1
